molecular target: hMC2-R (Homo sapiens, UniProt P41968); construct: expressed in transfected cells; host or cells: HEK-293; test: Competitive binding assay of additional compounds, Table 6 hMC2-R; conditions: 1 μM, mean of triplicate
Sequence (P41968 whole entry): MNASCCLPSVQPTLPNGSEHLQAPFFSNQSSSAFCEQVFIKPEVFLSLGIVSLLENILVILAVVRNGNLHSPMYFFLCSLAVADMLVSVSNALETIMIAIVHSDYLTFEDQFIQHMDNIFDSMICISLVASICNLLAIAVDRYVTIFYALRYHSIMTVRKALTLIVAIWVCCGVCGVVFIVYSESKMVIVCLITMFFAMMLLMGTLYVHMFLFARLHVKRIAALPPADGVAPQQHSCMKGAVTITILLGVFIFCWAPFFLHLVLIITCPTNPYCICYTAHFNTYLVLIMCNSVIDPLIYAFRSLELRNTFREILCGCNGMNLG
Non-standard residues stand in square brackets, D forms with d. *: point of attachment. Phenylacetyl(4-Ph) = O=C(Cc1ccc(-c2ccccc2)cc1)*; Acetyl(2-naphthyl) = O=C(Cc1ccc2ccccc2c1)*
Collected % Inhibition of Binding hMC2-R values appear next to each entry.
Kindly provide the numeric value in % only, without the unit symbol.

Substance	Endpoint	Measurement units	Measured
NH2-(CH2)6-CO-Ser(Bzl)-D-Phe(4′-Cl)-Arg-Trp-Cys-NH2	% Inhibition of Binding hMC2-R	%	90
Naphthlyl-2-acetyl-D-Phe-Arg-Cys-Trp-NH2 ({Acetyl(2-naphthyl)}-[dF]RCW-NH2; also: metal complex)	% Inhibition of Binding hMC2-R	%	0
Ac-Nle-Ala-His-D-Phe-Arg-D-Nal 2′-Cys-NH2	% Inhibition of Binding hMC2-R	%	0
Aic-D-Phe-Arg-Cys-Trp-NH2	% Inhibition of Binding hMC2-R	%	0

**Query** Request the reported % Inhibition of Binding hMC2-R associated with 4′-Biphenylacetyl-D-Phe-Arg-Cys-Trp-NH2 ({Phenylacetyl(4-Ph)}-[dF]RCW-NH2; not fully specified; printed as 4′-Biphenylacetyl-D-Phe-Arg-Cys-Trp-NH2)
**Result** 0

**Query** Given Ac-Ala-Ala-Ala-D-Phe-Arg-Cys-Trp-NH2 (Ac-AAA[dF]RCW-NH2; not fully specified; printed as Ac-Ala-Ala-Ala-D-Phe-Arg-Cys-Trp-NH2) , state its recorded % Inhibition of Binding hMC2-R.
**Result** 0

**Query** Query: % Inhibition of Binding hMC2-R; subject: Ac-Nle-Ala-His-D-Phe-Arg-Nal 1′-Cys-NH2
**Result** 22

====

biological target: MC4-R (Homo sapiens); construct: expressed in transfected cells; host or cells: HEK-293; assay: Competitive binding assay: inhibition of 125I-NDP-α-MSH binding to HEK-293 membranes with cloned human receptor subtype 4; details: Table 6; 1 μM; mean of triplicate
Non-standard residues stand in square brackets, D forms with d. No end group written: not given here. aThr = C[C@H](O)[C@H](N)C(=O)O
Reported values of % Inhibition of Binding hMC4-R for individual entries
Output spec: scalar in %, unitless text.

Below: 3 substances and their reported % Inhibition of Binding hMC4-R.
Substance	% Inhibition of Binding hMC4-R / %
Ac-Ala-His-D-Phe-Arg-Cys-Trp-NH2 ({Ac-Ala-H2N}-[dF]RCW-NH2; not fully specified; printed as Ac-Ala-His-D-Phe-Arg-Cys-Trp-NH2)	0
allo-Thr-D-Phe-Arg-Cys-Trp-NH2 ([aThr][dF]RCW-NH2; also: metal complex)	0
3′-Br Phenyl acetyl-Arg-Arg-D-Bip-Cys-Bip-NH2	68

Turning now to a further record.
**Query** # % Inhibition of Binding hMC4-R lookup, item `Heptanoyl-Ser(Bzl)-D-Phe(2′-Cl)-Lys-Phg-Cys-NH2`
**Result** 15

====

target: MC4-R (Homo sapiens, UniProt P32245); construct: expressed in transfected cells; host or cells: HEK-293; assay: Competitive binding assay: inhibition of 125I-NDP-α-MSH binding to HEK-293 membranes with cloned human receptor subtype 4; conditions: Table 1; 1 μM Re-complexed peptide
Sequence (P32245 whole entry): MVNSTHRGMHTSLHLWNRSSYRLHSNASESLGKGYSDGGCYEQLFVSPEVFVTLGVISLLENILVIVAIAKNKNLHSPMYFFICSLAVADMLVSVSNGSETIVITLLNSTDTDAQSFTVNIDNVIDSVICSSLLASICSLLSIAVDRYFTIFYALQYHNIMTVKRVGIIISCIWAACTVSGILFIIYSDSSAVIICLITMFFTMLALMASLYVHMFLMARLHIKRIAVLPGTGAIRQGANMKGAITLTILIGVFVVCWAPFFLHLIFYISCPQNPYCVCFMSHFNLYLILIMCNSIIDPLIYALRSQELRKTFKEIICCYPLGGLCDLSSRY
Non-standard residues stand in square brackets, D forms with d. Nle = CCCC[C@H](N)C(=O)O
Endpoint: % Inhibition of Binding hMC4-R (%)
Output spec: scalar in %, unitless text.

Substance	% Inhibition of Binding hMC4-R, %
Heptanoyl-Ser(Bzl)-D-Nal 2′-Arg-Trp-Cys-NH2	97
D-(N-Bzl)Nal 2′-Arg-Trp-Cys-NH2	99
Ac-Nle-Ala-His-D-Phe(3′-Cl)-Arg-Trp-Cys-Trp-NH2	100

**Query** Quick one: % Inhibition of Binding hMC4-R for Ac-Nle-Ala-His-D-Phe-Arg-Trp-Cys-NH2 ({Ac-Nle-Ala-H2N}-[dF]RWC-NH2; also: ReO complex) ?
**Result** 89

====

biological target: MC4-R (Homo sapiens, UniProt P32245); construct: expressed in transfected cells; host or cells: HEK-293; test: Functional activity assay: intracellular cAMP in HEK-293 cells expressing MC4-R; assay type: cell-based; details: Re-complexed peptide
Non-standard residues stand in square brackets, D forms with d. Nle = CCCC[C@H](N)C(=O)O
Endpoint: Functional activity at MC4-R (cAMP accumulation; inhibition of α-MSH-induced cAMP)

Substance	Target	Measured
Ac-Nle-Ala-His-D-Phe-Arg-Trp-Cys-NH2 ({Ac-Nle-Ala-H2N}-[dF]RWC-NH2; also: ReO complex)	MC4-R (Homo sapiens, UniProt P32245)	MC4-R agonists
D-(N-Bzl)Nal 2′-Arg-Trp-Cys-NH2	MC4-R (Homo sapiens, UniProt P32245)	MC4-R antagonists
Ac-Nle-Ala-His-D-Phe(3′-Cl)-Arg-Trp-Cys-Trp-NH2	MC4-R (Homo sapiens, UniProt P32245)	MC4-R agonists
Heptanoyl-Ser(Bzl)-D-Nal 2′-Arg-Trp-Cys-NH2	MC4-R (Homo sapiens, UniProt P32245)	MC4-R antagonists

====

Target: MC4-R (Homo sapiens, UniProt P32245)
Construct: expressed in transfected cells; host or cells: HEK-293
Assay: Competitive binding assay: inhibition of 125I-NDP-α-MSH binding to HEK-293 membranes with cloned human receptor subtype 4
Conditions: Table 6; 1 μM; mean of triplicate
Experimental: Rhenium-complexed metallopeptides of the formulas given in Table 1 were prepared, with the metallopeptides complexed with rhenium using the rhenium transfer agent ReOCl3(PPh3)2 in the presence of 1,8-Diazabicyclo[5,4,0] undec-7-ene as a base, as disclosed in International Application PCT/US00/16396, filed Jun. […] Affinities of compounds were measured using membranes from HEK-293 cells containing cloned human melanocortin receptor subtypes 3, 4 and 5. […]
Non-standard residues stand in square brackets, D forms with d. *: point of attachment. Desaminotyrosyl = O=C(CCc1ccc(O)cc1)*; 4‑Amc = not defined here; Nle = CCCC[C@H](N)C(=O)O
Quick list: % Inhibition of Binding hMC4-R per entry.
The answer is to be given in %; state only the numeric part.

Consider the worked cases shown below.
Substance	% Inhibition of Binding hMC4-R / %
Heptanoyl-Ser(Bzl)-D-Phe(2′-Cl)-Lys-Phe-Cys-NH2	19
3′-(4′-Hydroxyphenyl)propionyl-HiS-D-Phe-Arg-Cys-Trp-NH2 (Desaminotyrosyl-H[dF]RCW-NH2; not fully specified; printed as 3′-(4′-Hydroxyphenyl)propionyl-HiS-D-Phe-Arg-Cys-Trp-NH2)	0
Ac-Ala-Ala-Ala-D-Phe-Arg-Cys-Trp-NH2 (Ac-AAA[dF]RCW-NH2; not fully specified; printed as Ac-Ala-Ala-Ala-D-Phe-Arg-Cys-Trp-NH2)	3

**Query** Which % Inhibition of Binding hMC4-R is reported for this substance? 4-Amc-D-Phe-Arg-Trp-Cys-NH2 ({4‑Amc}-[dF]RWC-NH2; not fully specified; printed as 4-Amc-D-Phe-Arg-Trp-Cys-NH2; reading uncertain)
**Result** 6

**Query** Name the reported % Inhibition of Binding hMC4-R value associated with the substance Ac-Nle-Ala-Arg-D-Phe-Arg-Cys-Trp-NH2 (Ac-[Nle]AR[dF]RCW-NH2; not fully specified; printed as Ac-Nle-Ala-Arg-D-Phe-Arg-Cys-Trp-NH2)
**Result** 39

====

biological target: MC1-R (Mus musculus, UniProt Q01727); construct: MC1-R membranes were isolated from B16—F10 mouse melanoma cells; endogenous in cells; host or cells: B16-F10 mouse melanoma cells; experiment: Competitive binding assay: inhibition of 125I-NDP-α-MSH binding to membranes from B16-F10 mouse melanoma cells; details: Table 6; 1 μM; mean of triplicate
Sequence (Q01727 whole entry): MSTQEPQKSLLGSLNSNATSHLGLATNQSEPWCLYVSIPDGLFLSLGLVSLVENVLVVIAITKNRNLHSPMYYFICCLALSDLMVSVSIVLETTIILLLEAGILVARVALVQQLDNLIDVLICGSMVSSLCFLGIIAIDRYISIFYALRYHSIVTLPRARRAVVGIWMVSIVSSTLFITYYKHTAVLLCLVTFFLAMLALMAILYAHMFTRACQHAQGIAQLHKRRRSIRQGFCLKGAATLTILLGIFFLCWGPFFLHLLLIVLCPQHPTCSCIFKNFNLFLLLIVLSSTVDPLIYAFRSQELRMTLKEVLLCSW
Non-standard residues stand in square brackets, D forms with d. No end group written: not given here. *: point of attachment. Hydrocinnamoyl = O=C(CCc1ccccc1)*; Nle = CCCC[C@H](N)C(=O)O
Lab note: compare % Inhibition of Binding MC1-R against 50%. Equal or greater, write true. Smaller, write false.

Example entries and their recorded answers appear below.
Substance	Class name
D-Phe-Arg-Trp-Cys-Trp-NH2 ([dF]RWCW-NH2; also: metallopeptide)	true
Ac-Nle-Ala-His-D-Phe-Arg-D-Nal 2′-Cys-NH2	true
Tic-D-Phe(4′-Cl)-Arg-Trp-Cys-NH2	false
D-Igl-D-Nal 2′-Arg-Trp-Cys-NH2	false
3′-Phenylpropionyl-His-D-Phe-Arg-Cys-Trp-NH2 (Hydrocinnamoyl-H[dF]RCW-NH2; not fully specified; printed as 3′-Phenylpropionyl-His-D-Phe-Arg-Cys-Trp-NH2)	true

**Query** Threshold query (% Inhibition of Binding MC1-R >= 50%) on Phe-Arg-Trp-Cys-Lys-NH2 (FRWCK-NH2; not fully specified; printed as Phe-Arg-Trp-Cys-Lys-NH2)
**Result** true

**Query** Does % Inhibition of Binding MC1-R meet or surpass 50% for Ac-Nle-Ala-Ala-D-Phe-Arg-Cys-Trp-NH2 (Ac-[Nle]AA[dF]RCW-NH2; not fully specified; printed as Ac-Nle-Ala-Ala-D-Phe-Arg-Cys-Trp-NH2) ?
**Result** false

**Query** Assess whether reported % Inhibition of Binding MC1-R for `Amb-D-Phe-Arg-Trp-Cys-NH2` sits at 50% or higher.
**Result** false
